System: A549
Assay: Cytotoxicity against human A549 cells after 48 hrs by MTT assay
Assay type: functional, cell-based
Conditions: A549, 48 h
molecules and their reported IC50

Reference set (3 entries):
SMILES REPRESENTATION	STUDY SYSTEM	IC50
CC(=O)O[C@H]1C[C@@H]2C(=CC[C@@H]3[C@@]2(C)C(=O)C[C@]2(C)[C@@H]([C@@](C)(O)C(=O)CC=C(C)C)[C@H](OC(C)=O)C[C@@]32C)C(C)(C)C1=O	A549	> 100 µM
CC(=O)OC(C)(C)CCC(=O)[C@](C)(O)[C@H]1[C@H](O)C[C@@]2(C)[C@@H]3CC=C4[C@@H](C[C@H](Br)C(=O)C4(C)C)[C@]3(C)C(=O)C[C@]12C	A549	34.9 µM
CC(=O)O[C@H]1C[C@@H]2C(=CC(=O)[C@@H]3[C@@]2(C)C(=O)C[C@]2(C)[C@@H]([C@@](C)(O)C(=O)CCC(C)(C)OC(C)=O)[C@H](OC(C)=O)C[C@@]32C)C(C)(C)C1=O	A549	> 100 µM

Recorded IC50 (molecule CC(=O)OC(C)(C)CCC(=O)[C@](C)(O)[C@H]1[C@H](O)C[C@@]2(C)[C@@H]3CC=C4[C@@H](C[C@H](OC(=O)c5ccccc5)C(=O)C4(C)C)[C@]3(C)C(=O)C[C@]12C ): > 100 µM

Recorded IC50 (molecule CC(=O)O[C@H]1C(=O)[C@@]2(C)[C@H]([C@H](OC(=O)c3ccccc3)[C@]3(O)C[C@H](OC(=O)[C@H](O)[C@@H](NC(=O)c4ccccc4)c4ccccc4)C(C)=C1C3(C)C)[C@]1(OC(C)=O)CO[C@@H]1C[C@@H]2O ): 1.16 µM

Recorded IC50 (molecule CC(=O)OC(C)(C)CCC(=O)[C@](C)(O)[C@H]1[C@H](OC(=O)n2ccnc2)C[C@@]2(C)[C@@H]3CC=C4[C@@H](C[C@H](OC(=O)n5ccnc5)C(=O)C4(C)C)[C@]3(C)C(=O)C[C@]12C ): > 100 µM

Recorded IC50 (molecule CC(=O)OC(C)(C)CCC(=O)[C@](C)(O)[C@H]1[C@H](OC(=S)n2ccnc2)C[C@@]2(C)[C@@H]3CC=C4[C@@H](C[C@H](OC(=S)n5ccnc5)C(=O)C4(C)C)[C@]3(C)C(=O)C[C@]12C ): 14.7 µM

Recorded IC50 (molecule CC(=O)[C@H]1[C@H](O)C[C@@]2(C)[C@@H]3CC=C4[C@@H](C=C(O)C(=O)C4(C)C)[C@]3(C)C(=O)C[C@]12C ): > 100 µM

Recorded IC50 (molecule CC(=O)O[C@H]1C[C@@H]2C(=CC[C@@H]3[C@@]2(C)C(=O)C[C@]2(C)[C@@H]([C@@](C)(OC(=O)C(F)(F)F)C(=O)CCC(C)(C)OC(C)=O)[C@H](OC(C)=O)C[C@@]32C)C(C)(C)C1=O ): > 100 µM

Recorded IC50 (molecule CC(=O)OC(C)(C)CCC(=O)[C@](C)(O)[C@H]1[C@H](O)C[C@@]2(C)[C@@H]3CC=C4[C@@H](C=C(O)C(=O)C4(C)C)[C@]3(C)C(=O)C[C@]12C ): > 100 µM

Recorded IC50 (molecule CC(=O)OC(C)(C)CCC(=O)[C@](C)(O)[C@H]1[C@H](OC(=O)CCC(=O)O)C[C@@]2(C)[C@@H]3CC=C4[C@@H](C[C@H](OC(=O)CCC(=O)O)C(=O)C4(C)C)[C@]3(C)C(=O)C[C@]12C ): > 100 µM

Recorded IC50 (molecule CC(=O)OC(C)(C)/C=C/[C@H](O)[C@](C)(O)[C@H]1[C@H](O)C[C@@]2(C)[C@@H]3CC=C4[C@@H](C[C@H](O)[C@@H](O)C4(C)C)[C@]3(C)C(=O)C[C@]12C ): > 100 µM

Ref: ChEMBL document CHEMBL2016559
